System: Colo-26 cells
Test: Phototoxicity toward Colo-26 cells with tunable dye laser
Assay type: cell-based, murine
Conditions: Mus musculus, 48 h, read-out: EC50 (λmax ± 2 nm), 0.5 J cm^–2
property-label: EC50

CN1CCC(C)(C)c2cc3c(-c4ccc(C(=O)N5CCCCC5)s4)c4ccc(=[N+](C)C)cc-4[se]c3cc21.[Cl-] [17b] ... > 500 nM

---

Test: Singlet oxygen yield from 1O2 luminescence at 1270 nm
Type: physicochemical
Conditions: air-saturated CH3OH; ±SD
property-label: Quantum yield for the generation of singlet oxygen Φ(1O2)

CCN(CC)C(=O)c1ccc(-c2c3ccc(=[N+](C)C)cc-3[se]c3cc4c(cc23)C(C)(C)CCN4C)s1.[Cl-] [15b] ... 0.50
CCN(CC)C(=S)c1ccc(-c2c3ccc(=[N+](C)C)cc-3[se]c3cc4c(cc23)C(C)(C)CCN4C)s1.[Cl-] [16b] ... 0.54
CN1CCC(C)(C)c2cc3c(-c4ccc(C(=S)N5CCCCC5)s4)c4ccc(=[N+](C)C)cc-4[se]c3cc21.[Cl-] [18b] ... 0.44
CN1CCC(C)(C)c2cc3c(-c4ccc(C(=O)N5CCCCC5)s4)c4ccc(=[N+](C)C)cc-4[se]c3cc21.[Cl-] [17b] ... 0.48
